Measured values drawn from patent US20090233960A1 for this set.

Target: human ROCKI/ROCKII mix (Homo sapiens, UniProt O75116)
Sequence (O75116 11-552 limits assumed): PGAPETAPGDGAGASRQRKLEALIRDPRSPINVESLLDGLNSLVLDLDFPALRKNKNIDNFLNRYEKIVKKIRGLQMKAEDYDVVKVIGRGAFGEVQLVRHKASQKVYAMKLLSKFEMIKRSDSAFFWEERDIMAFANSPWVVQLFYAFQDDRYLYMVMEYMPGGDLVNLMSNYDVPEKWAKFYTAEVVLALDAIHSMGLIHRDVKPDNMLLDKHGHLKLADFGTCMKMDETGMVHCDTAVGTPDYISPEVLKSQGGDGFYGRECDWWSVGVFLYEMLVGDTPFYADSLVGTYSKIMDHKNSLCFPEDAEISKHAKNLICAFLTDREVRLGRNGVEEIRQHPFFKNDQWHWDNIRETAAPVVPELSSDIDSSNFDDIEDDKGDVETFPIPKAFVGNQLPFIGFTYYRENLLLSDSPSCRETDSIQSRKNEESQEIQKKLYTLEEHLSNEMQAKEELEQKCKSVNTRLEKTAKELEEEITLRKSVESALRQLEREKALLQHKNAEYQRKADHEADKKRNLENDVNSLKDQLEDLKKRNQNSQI
Experiment: ROCK inhibition, fluorescence polarization (FP) IMAP assay
Details: 10 μM ATP
Experimental: The compounds of the invention were tested for inhibition of human ROCKI/ROCKII mix. The inhibition assays were performed with a fluorescence polarization (FP) assay using the commercially available ROCK IMAP Kit from Molecular Devices (Product ID. No. R8093) essentially in accordance with the protocol supplied by the manufacturer. The S6 ribosomal protein-derived substrate used was (Fl)-[…], also obtained from Molecular Devices (Product ID No. R7184). […]
pIC50: −log10 of the molar value.
Collected pIC50 values appear next to each entry.
property_label: pIC50

[
  {
    "molecule": "CC(N)c1ccc(C(=O)Nc2ccncc2)cc1OCCN (centres unmarked)",
    "value": "5.30 to 6.30"
  },
  {
    "molecule": "CC(N)c1ccc(C(=O)Nc2ccncc2)cc1OCCO (centres unmarked)",
    "value": "5.30 to 6.30"
  },
  {
    "molecule": "CC(N)c1ccc(C(=O)Nc2ccncc2)cc1-c1ccoc1 (centres unmarked)",
    "value": "6.30 to 7.30"
  },
  {
    "molecule": "CC(N)c1ccc(C(=O)Nc2ccncc2)cc1-c1cccs1 (centres unmarked)",
    "value": "> 7.30"
  },
  {
    "molecule": "C[C@@H](N)c1ccc(C(=O)Nc2ccncc2)cc1-c1cccs1",
    "value": "> 7.30"
  },
  {
    "molecule": "CC(N)c1ccc(C(=O)Nc2ccncc2)cc1NC(=O)c1ccc(Cl)cc1 (centres unmarked)",
    "value": "6.30 to 7.30"
  },
  {
    "molecule": "CC(N)c1ccc(C(=O)Nc2ccncc2)cc1[N+](=O)[O-] (centres unmarked)",
    "value": "6.30 to 7.30"
  },
  {
    "molecule": "CC(N)c1ccc(C(=O)Nc2ccncc2)cc1NC(=O)c1ccco1 (centres unmarked)",
    "value": "6.30 to 7.30"
  },
  {
    "molecule": "CC(N)c1ccc(C(=O)Nc2ccncc2)cc1OCCCN (centres unmarked)",
    "value": "5.30 to 6.30"
  },
  {
    "molecule": "CC(N)c1ccc(C(=O)Nc2ccncc2)cc1N (centres unmarked)",
    "value": "5.30 to 6.30"
  },
  {
    "molecule": "CC(N)c1ccc(C(=O)Nc2ccncc2)cc1O (centres unmarked)",
    "value": "5.30 to 6.30"
  },
  {
    "molecule": "CC(N)c1ccc(C(=O)Nc2ccncc2)cc1-c1cccc(Cl)c1 (centres unmarked)",
    "value": "> 7.30"
  },
  {
    "molecule": "CC(N)c1ccc(C(=O)Nc2ccncc2)cc1-c1ccc(Cl)cc1 (centres unmarked)",
    "value": "> 7.30"
  },
  {
    "molecule": "CC(N)c1ccc(C(=O)Nc2ccncc2)cc1OCCCO (centres unmarked)",
    "value": "5.30 to 6.30"
  },
  {
    "molecule": "COc1ccc(-c2cc(C(=O)Nc3ccncc3)ccc2C(C)N)cc1 (centres unmarked)",
    "value": "6.30 to 7.30"
  },
  {
    "molecule": "CC(N)c1ccc(C(=O)Nc2ccncc2)cc1-c1ccc(F)cc1 (centres unmarked)",
    "value": "> 7.30"
  },
  {
    "molecule": "CC(N)c1ccc(C(=O)Nc2ccncc2)cc1OCc1ccccc1 (centres unmarked)",
    "value": "6.30 to 7.30"
  },
  {
    "molecule": "C[C@H](N)c1ccc(C(=O)Nc2ccncc2)cc1-c1cccs1",
    "value": "6.30 to 7.30"
  },
  {
    "molecule": "CC(N)c1ccc(C(=O)Nc2ccncc2)cc1NC(=O)c1ccccc1 (centres unmarked)",
    "value": "6.30 to 7.30"
  },
  {
    "molecule": "CC(N)c1ccc(C(=O)Nc2ccncc2)cc1NC(=O)c1cccc(Cl)c1 (centres unmarked)",
    "value": "6.30 to 7.30"
  }
]
